Target Or Test System: Enoyl-acyl-carrier protein reductase (Plasmodium falciparum)
Sequence (Q965D5 whole entry): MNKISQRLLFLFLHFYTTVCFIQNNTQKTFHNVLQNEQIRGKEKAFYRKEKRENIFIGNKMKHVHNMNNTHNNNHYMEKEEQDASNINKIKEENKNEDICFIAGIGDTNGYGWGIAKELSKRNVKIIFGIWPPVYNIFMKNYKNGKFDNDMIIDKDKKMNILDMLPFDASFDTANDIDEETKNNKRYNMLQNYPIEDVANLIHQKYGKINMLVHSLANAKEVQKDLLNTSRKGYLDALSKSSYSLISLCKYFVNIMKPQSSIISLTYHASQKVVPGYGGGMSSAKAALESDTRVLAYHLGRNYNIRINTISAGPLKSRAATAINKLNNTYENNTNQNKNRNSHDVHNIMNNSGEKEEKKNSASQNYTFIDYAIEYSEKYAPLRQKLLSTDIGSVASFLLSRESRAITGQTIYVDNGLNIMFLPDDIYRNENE
Run Description: Inhibition of Plasmodium falciparum ENR in presence of ECG by dilution assay
Measured Endpoint: Ki

> print(dat)
                                   compound  measured.value
1  Oc1cc(Cl)ccc1Oc1ccc(Cl)cc1Cl [TRICLOSAN]         52.1 pM

* * *

Target Or Test System: Enoyl-acyl-carrier protein reductase (Plasmodium falciparum)
Run Description: Inhibition of Plasmodium falciparum ENR in presence of butein by dilution assay
Measured Endpoint: Ki (nM)

> print(dat)
      compound.structure.string                     target.or.test.system  measured.value
1  Oc1cc(Cl)ccc1Oc1ccc(Cl)cc1Cl  Enoyl-acyl-carrier protein reductase (Plasmodium falciparum)           0.798

* * *

Target Or Test System: Enoyl-acyl-carrier protein reductase (Plasmodium falciparum)
Run Description: Inhibition of Plasmodium falciparum ENR using crotonyl-CoA substrate
pKi: −log10 of the molar value.
Label label 1 when pKi is at or above 6; anything below gets label 0.

> print(dat)
                                   molecule  assigned.category
1      O=C(/C=C/c1ccc(O)c(O)c1)c1ccc(O)cc1O            label 0
2  O=C(O[C@@H]1Cc2c(O)cc(O)cc2O[C@@H]1c1cc(O)c(O)c(O)c1)c1cc(O)c(O)c(O)c1 [EPIGALOCATECHIN GALLATE]            label 1
3  O=C(O[C@@H]1Cc2c(O)cc(O)cc2O[C@@H]1c1ccc(O)c(O)c1)c1cc(O)c(O)c(O)c1 [EPICATECHIN GALLATE]            label 1
4  O=c1c(O)c(-c2ccc(O)c(O)c2)oc2cc(O)cc(O)c12            label 1
5  Oc1cc(O)c2c(c1)O[C@H](c1cc(O)c(O)c(O)c1)[C@H](O)C2 [EPIGALLOCATECHIN]            label 0

* * *

Target Or Test System: Enoyl-acyl-carrier protein reductase (Plasmodium falciparum)
Run Description: Inhibition of Plasmodium falciparum ENR in presence of butein
Measured Endpoint: Ki

> print(dat)
      compound.structure.string                     target.or.test.system  measured.value
1  Oc1cc(Cl)ccc1Oc1ccc(Cl)cc1Cl  Enoyl-acyl-carrier protein reductase (Plasmodium falciparum)         13.7 nM
